readout: melting point

Here is how some molecules turned out for melting point.
*Q* I'd like to know its melting point. The molecule in question is COc1ccc2c(ccn2S(=O)(=O)c2ccccc2)c1
*A* 73 to 75 °C

*Q* Report melting point for Cc1cc(=O)c(OCc2ccccc2)c(C(=O)NC2CCCCC2)o1 please.
*A* 118 to 120 °C

*Q* State the recorded melting point for this entry: CCOC(Cc1ccc(OCCN2C(=O)COc3ccccc32)cc1)C(=O)O (centres undefined)
*A* 90 to 93 °C

*Q* What value of melting point has been recorded for this entry: CC(=O)OC1CSC(Oc2cccc3ccoc23)C(OC(C)=O)C1OC(C)=O (centres undefined)
*A* 152 °C

*Q* Please report the recorded melting point for Cn1nc2c(oc3ccccc32)c1NCC(F)(F)F .
*A* 120 to 121 °C

Continuing:
*Q* # get_value(readout='melting point', item= CCNC(=O)[C@@H]1C[C@]2(NC(=O)N(CCCCl)C2=O)c2cc(F)ccc2O1 )
*A* 95 to 97 °C

*Q* What melting point value was documented for this molecule, Cc1cc(C)nc(NC(=O)NS(=O)(=O)c2ccsc2C(=O)O)n1 ?
*A* 127 °C

*Q* Return reported melting point; argument: Cc1nc2ccc3c(c2nc1C)OC(CN1CC=C(c2c[nH]c4ccccc24)CC1)CO3 (centres undefined)
*A* 153 to 155 °C

*Q* # input molecule: NC(=O)c1c(Br)cc(Br)c(CC(=O)O)c1Br ; wanted: its melting point
*A* 245 °C
